biological target: Progesterone receptor (Rattus norvegicus); assay: Binding affinity for cytosolic progesterone receptor (PRc) of rat uterus compared to RU-486
Entries annotated with measured relative binding affinity (RBA)

Before answering, review these 3 worked examples.
• CC#C[C@]1(O)CC[C@H]2[C@@H]3CCC4=CC(=O)CCC4=C3[C@@H](c3ccc(N(C)C)cc3)C[C@@]21C = 100
• C[C@]12CCC3=C4CCC(=O)C=C4CCC3C1CC[C@@]2(O)C(F)(F)F (some centres undefined) = 77.8
• C[C@]12C=CC3=C4CCC(=O)C=C4CCC3C1CC[C@@]2(O)C(F)(F)F (some centres undefined) = 38.9

Proceeding to the next compound to report its relative binding affinity (RBA).
I looked up C[C@]12CCC3C(CCC4=CC(=O)CC[C@@H]43)C1CC[C@@]2(O)C(F)(F)F (some centres undefined) and its relative binding affinity (RBA) for Progesterone receptor (Rattus norvegicus) was 292
